System: K-562 leukemia
PROTOCOL: NCI tumour cell line growth inhibition, 48 h
OBSERVED_PROPERTY: GI50

1. C=C1CC[C@@H]2[C@](C)(COC(C)=O)[C@H](OC(C)=O)CC[C@@]2(C)[C@@H]1CC(Nc1ccc(S(=O)(=O)Nc2ccc(Cl)nn2)cc1)C1=CCOC1=O (some centres undefined) | 526 nM
2. O=S(=O)(c1cccc2c(I)cccc12)N1CCCNCC1 | 10900 nM
3. Cc1cnc(CNC(=O)c2c(=O)c3ccc(N4CCCN(C)CC4)nc3n3c2sc2ccccc23)cn1 | 1820 nM
4. O=c1c(O)c(-c2ccc(O)c(O)c2)oc2cc(O)cc(O)c12 | 5200 nM
5. COc1ccccc1CNCCCN1C(=O)c2ccc3c4c(ccc(c24)C1=O)C(=O)N(CCCN)C3=O | 751 nM
6. O=C1C(SCCO)=C(SCCO)C(=O)N1c1ccc(-c2ccccc2)cc1 | > 50000 nM
7. N#Cc1nc2c(S(=O)(=O)c3ccc(Cl)cc3)c(N)n(CCCN3CCOCC3)c2nc1C#N | 3000 nM
8. Nc1c(C(=O)c2cccc(-c3cccnc3)c2)cnn1-c1ccc(F)cc1F | 962 nM
9. Cn1cccc1-c1cc(-c2ccc(Br)cc2)[nH]c(=O)c1C#N | > 100000 nM

* * *

Recorded GI50, one value per entry.
Tested on: EKVX NSCLC
PROTOCOL: NCI tumour cell line growth inhibition, 48 h
OBSERVED_PROPERTY: GI50

1. CN(C)c1ccc(C(=NO)c2ccc(N(C)C)cc2)cc1 | 3.28 µM
2. Cc1cnc(CNC(=O)c2c(=O)c3ccc(N4CCCN(C)CC4)nc3n3c2sc2ccccc23)cn1 | 9.14 µM
3. CN(C)CC1CCC2=C(C1=O)C(c1ccc(Cl)c(Cl)c1)C1=C(CCC(CN(C)C)C1=O)O2 (centres undefined) | 18.2 µM
4. Cc1ccc(-c2nc3nc(-c4ccccc4)nc(N4CCNCC4)c3o2)cc1 | 1.74 µM
5. O=C1C(SCCO)=C(SCCO)C(=O)N1c1ccc(-c2ccccc2)cc1 | 9.5 µM
6. CCOC(=O)C1CCCCN1C(=O)c1ccc(Nc2cnc3cc(C(F)(F)F)ccc3n2)cc1 (centres undefined) | 36 µM
7. O=c1c(O)c(-c2ccc(O)c(O)c2)oc2cc(O)cc(O)c12 | 23.9 µM
8. C=C1c2ccoc2C[C@H]2[C@H]1CC[C@@]1(O)[C@@](C)(C(=O)OC)CCC[C@]21C | 37 µM
9. C=C1CC[C@@H]2[C@](C)(COC(C)=O)[C@H](OC(C)=O)CC[C@@]2(C)[C@@H]1CC(Nc1ccc(S(=O)(=O)Nc2ccc(Cl)nn2)cc1)C1=CCOC1=O (some centres undefined) | 4.53 µM

* * *

Tested on: LOX IMVI melanoma
PROTOCOL: NCI tumour cell line growth inhibition, 48 h
OBSERVED_PROPERTY: TGI

1. COC1=C(C)C(=O)c2c(cc3c(c2O)C(C)(CCC=C(C)C)C(C)O3)C1=O (stereo unspecified) | > 100 µM
2. Cn1cc(-c2csc(-c3cn(C)c4ccccc34)n2)c2ccccc21 | > 100 µM
3. c1ccc(CSC2(SCc3ccccc3)CCCCC2)cc1 | > 10 µM
4. OC1CSc2nc3ccccc3n2C1 (stereo unspecified) | > 100 µM
5. CN(C)c1ccc(C(=NO)c2ccc(N(C)C)cc2)cc1 | > 100 µM
6. CCOC(=O)c1c(NC(=S)Nc2ccccc2)sc2c1CCOC2 | > 100 µM

* * *

Recorded GI50, one value per entry.
Test system: BT-549 breast
PROTOCOL: NCI tumour cell line growth inhibition, 48 h
OBSERVED_PROPERTY: GI50

1) CCN1C(=O)N(CC)C2C1NN=c1s/c(=C\c3ccccn3)c(=O)n12 (stereo not given) | 3.99 µM
2) CN(C)C(=O)c1cnc2oc3ccc(O)cc3c2c1-c1ccccc1 | 6.2 µM
3) COC(=O)c1cc2ccccc2c2c3c(ccc12)OCO3 | 47.1 µM
4) O=[N+]([O-])c1ccc(N=Nc2ccc(O)c3ccccc23)cc1 | 5.07 µM
5) Nc1ccccc1C#C/C=C\C#Cc1cccc(O)c1 | 7.12 µM
6) Cc1[nH]c(=O)nc(Nc2ccc(Cl)cc2)c1C(=O)N1CCN(CCO)CC1 | 53.8 µM
7) COc1ccc(CC(=O)c2ccc(O)cc2O)cc1 | 66.2 µM
8) COC(=N)c1c(N)[n+]([O-])c2ccc(F)cc2[n+]1[O-] | > 100 µM
9) Cc1ccc(C(=O)NC2CCC2)cc1-c1ccc(C(=O)NCC2CC2)cc1 | > 25 µM
10) N#Cc1nc2c(S(=O)(=O)c3ccc(Cl)cc3)c(N)n(CCCN3CCOCC3)c2nc1C#N | 5.75 µM

* * *

Test system: NCI-H23 lung
PROTOCOL: NCI tumour cell line growth inhibition, 48 h
# class assignment by measured TGI: band A = under 4 µM, band B = from 4 µM up to 40 µM, band C = 40 µM and over

1) COC(=N)c1c(N)[n+]([O-])c2ccc(F)cc2[n+]1[O-] | band C
2) O=c1oc2c(Cl)cc(Cl)cc2cc1C1=CSC2=NCCN12 | band C
3) COc1cccc(-c2cc3c4c(nc5ccccc53)C(=O)c3cccnc3-c4n2)c1 | band B
4) NC(=O)NC12CC3CC(CC(F)(C3)C1)C2 | band C
5) Cn1c(N)nc(-c2ccc(Cl)cc2)c1SSc1c(-c2ccc(Cl)cc2)nc(N)n1C | band A
6) O=c1c(O)c(-c2ccc(O)c(O)c2)oc2cc(O)cc(O)c12 | band C
7) O=[N+]([O-])c1cc(Cl)cnc1Br | band B
8) Nc1ccccc1C#C/C=C\C#Cc1cccc(O)c1 | band B
9) COc1ccccc1C1c2cc3c(cc2OC(N2CCOCC2)C1C)OCO3 (configuration not stated) | band C
10) Cc1cn2c(/C=C3/C(=O)Nc4ccc(O)cc43)c(C)nc2s1 | band C
11) Cc1ccc(-c2nc3nc(-c4ccccc4)nc(N4CCNCC4)c3o2)cc1 | band A
12) CCOC(=O)c1nnc2c(C#N)c(-c3ccccc3)c(C)n2c1N | band C
13) Cc1cccc(N/C(Sc2ccccc2)=C(/C(Cl)=C(Cl)Cl)[N+](=O)[O-])c1 | band B
14) COc1cc(OC)c(C(=O)/C=C/c2cccc(C#N)c2)c(OC)c1 | band B
15) COc1cccc(NC(=O)CC(=O)N2N=C(n3ccc4ccccc43)CC2c2ccccc2)c1 (configuration not stated) | band C
16) CC1=C(CCC(C)NCc2ccc(OCCCN3CCCCC3)cc2)C(C)(C)CCC1 (configuration not stated) | band A
17) CCCCCCCCCCCCCCCCCCOCC(O)COP(=O)(O)OCC1OC(n2ccc(N)nc2=O)C(O)C1O (configuration not stated) | band C
18) CCC1NC(N=Nc2ccc([N+](=O)[O-])cc2)(P(=O)(OC(C)C)OC(C)C)OC1=O (configuration not stated) | band C
19) c1ccc2c(c1)OC(N1CCCC1)c1cnc(N3CCOCC3)nc1-2 (configuration not stated) | band B

* * *

Test system: UACC-62 melanoma
PROTOCOL: NCI tumour cell line growth inhibition, 48 h
OBSERVED_PROPERTY: TGI (µM)

1. CCOc1ccc(N/C(=C(/C(Cl)=C(/Cl)NC(C)(C)C)[N+](=O)[O-])n2nnc3ccccc32)cc1 | 65.3
2. CC1=C(C)SC(=C2Sc3nc(O)[nH]c(=O)c3S2)S1 | 59.4
3. C=C1CC[C@@H]2[C@](C)(COC(C)=O)[C@H](OC(C)=O)CC[C@@]2(C)[C@@H]1CC(Nc1ccc(S(=O)(=O)Nc2ccc(Cl)nn2)cc1)C1=CCOC1=O (some centres undefined) | 3.86
4. CCC[CH2][Sn]1([CH2]CCC)[O]C2C(CO)OC(n3ccc(N)nc3=O)C2[O]1 (centres undefined) | 2.41
5. CN(C)Cc1cc(N=Nc2ccc(Cl)cc2)cc(CN(C)C)c1O | 30.2
6. C[CH2][Sn]([CH2]C)([O]C(=O)c1ccccc1F)[O][Sn]([CH2]C)([CH2]C)[O]C(=O)c1ccccc1F | 35.1

* * *

Test system: HCT-15 colon
PROTOCOL: NCI tumour cell line growth inhibition, 48 h
Recorded TGI, one value per entry.
OBSERVED_PROPERTY: TGI

1) COc1ccc(/C=C(\C(=O)NCc2cccnc2)S(=O)(=O)c2ccccc2)cc1OC | 11.7 µM
2) CCOC(=O)c1cc2c(n1Cc1cc(OC)c(OC)c(OC)c1)-c1oncc1CCC2 | > 100 µM
3) O=C(OCCNC(=O)N1CC1)OCCNC(=O)N1CC1 | > 10 µM
4) O=C1/C(=N\O)S(=O)(=O)c2ccccc21 | > 100 µM
5) COC(=O)c1cc2ccccc2c2c3c(ccc12)OCO3 | > 1000 µM
6) CCc1ccccc1NC(=O)/C(N=O)=C(/C)O | > 100 µM
7) N#CSCc1ccc(Cl)c(CSC#N)c1 | 25.1 µM
8) Cc1cc(S(=O)(=O)/N=C(\[N-]S(=O)(=O)c2cc(Cl)sc2Cl)[n+]2ccc(N(C)C)cc2)c(S)cc1Cl | > 100 µM
